The values you see were collected from patent US20090048258A1.

# TARGET OR SYSTEM: Human DGAT1 (Homo sapiens, UniProt O75907)
# Construct: my translation of the primer: M-G-DYKDDDD-GDRGSSRRR) (N); made in house; host or cells: Sf9 insect cells (recombinant baculovirus BAC-DGAT1, pFASTBAC1); microsome fraction
# Sequence (O75907 whole entry): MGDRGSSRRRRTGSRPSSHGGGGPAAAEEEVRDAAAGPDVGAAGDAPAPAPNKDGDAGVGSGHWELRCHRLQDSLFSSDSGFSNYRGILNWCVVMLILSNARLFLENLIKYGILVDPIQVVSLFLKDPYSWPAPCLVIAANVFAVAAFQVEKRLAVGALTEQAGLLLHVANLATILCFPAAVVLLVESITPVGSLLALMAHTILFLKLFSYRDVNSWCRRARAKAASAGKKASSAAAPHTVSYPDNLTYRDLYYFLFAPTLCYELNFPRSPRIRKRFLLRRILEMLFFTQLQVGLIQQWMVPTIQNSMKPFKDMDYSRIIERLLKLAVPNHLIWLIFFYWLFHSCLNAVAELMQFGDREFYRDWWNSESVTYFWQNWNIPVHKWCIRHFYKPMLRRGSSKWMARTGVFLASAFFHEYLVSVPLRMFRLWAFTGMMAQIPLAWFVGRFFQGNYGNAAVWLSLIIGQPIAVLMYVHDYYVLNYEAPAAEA
# TEST METHOD NOTES: DGAT inhibitory activity: [14C]-triglyceride synthesis by DGAT1 high expression Sf9 microsome
# Format: biochemical
# STATED CONDITIONS: Table 1, 25 μM dioleoylglycerol, 25 μM [14C]-Oleoyl-CoA, 32° C., 15 min, read-out: DGAT inhibitory activity (according to IC50)
pIC50: −log10 of the molar value.
QUANTITY NAME: pIC50

MOLECULE | pIC50
CCOc1ccc(C(=O)CCC(=O)Nc2cn(Cc3ccccc3)nc2-c2ccccc2)cc1OCC [Example 20] | 6.30 to 7.30
CCc1cc(C(=O)CCC(=O)Nc2cc(-c3ccccc3)c(Cc3ccccc3)s2)ccc1OC [Example 55] | 6.30 to 7.30
COc1ccc(C(=O)CCC(=O)Nc2cc(-c3ccccc3)c(Cc3ccccc3)s2)cc1CCCO [Example 54] | 6.30 to 7.30

Switching to the query record.
Fill in: pIC50 of CCOc1ccc(C(=O)CCC(=O)Nc2cc(-c3ccc(O)cc3)c3ccccc3n2)cc1OCC [Example 22] is ___
≥ 8.00
